Ref: ChEMBL document CHEMBL4304807

- target.or.system: UniProt:Q14145
- Sequence (Q14145 whole entry): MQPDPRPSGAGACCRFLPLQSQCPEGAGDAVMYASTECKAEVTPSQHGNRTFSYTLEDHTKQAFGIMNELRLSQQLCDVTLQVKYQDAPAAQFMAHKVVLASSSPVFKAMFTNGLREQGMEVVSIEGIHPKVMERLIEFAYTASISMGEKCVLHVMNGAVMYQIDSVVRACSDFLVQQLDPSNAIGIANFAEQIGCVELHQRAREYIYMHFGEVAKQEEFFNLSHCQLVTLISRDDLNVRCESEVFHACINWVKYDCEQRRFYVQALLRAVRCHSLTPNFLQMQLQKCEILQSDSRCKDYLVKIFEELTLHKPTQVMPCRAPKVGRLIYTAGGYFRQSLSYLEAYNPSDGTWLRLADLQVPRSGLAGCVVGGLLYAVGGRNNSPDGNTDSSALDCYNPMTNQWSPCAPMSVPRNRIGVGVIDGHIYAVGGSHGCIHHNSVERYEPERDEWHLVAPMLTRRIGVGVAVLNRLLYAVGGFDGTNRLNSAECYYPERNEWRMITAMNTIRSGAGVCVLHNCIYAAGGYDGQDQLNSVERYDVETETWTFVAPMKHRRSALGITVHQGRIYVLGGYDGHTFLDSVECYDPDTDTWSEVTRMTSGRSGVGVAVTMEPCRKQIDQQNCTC
- measurement.description: Inhibition of KEAP1 interaction with Nrf2 in human HEK293 cells transfected with ARE-LUC assessed as activation of Nrf2 signaling pathway measured after 18 hrs by steady-Glo luciferase assay
- Type: cell-based
Listed molecules paired with reported pEC50
Units for pEC50: none; it is -log10 of a concentration expressed in mol/L.

Query: Lab request: please report pEC50 under test system UniProt:Q14145 for COC1(c2ncc(F)cc2-c2cnc(C)s2)C=C(C#N)C(=O)C(C)(C)C1 (centres undefined)
Reply: 8.15

Query: Short answer please: pEC50, UniProt:Q14145, entry COC1(c2ncc(F)cc2OC(F)F)C=C(C#N)C(=O)C(C)(C)C1 (centres undefined)
Reply: 8.10

Query: Identify the measured pEC50 of COC1(c2ncccc2C(F)(F)F)C=C(C#N)C(=O)C(C)(C)C1 (centres undefined) for UniProt:Q14145.
Reply: 7.62

Query: Tell me reported pEC50 for COC1(c2ncc(F)cc2C(F)F)C=C(C#N)C(=O)C2(CC2)C1 (centres undefined) , tested with UniProt:Q14145.
Reply: 7.74
